tested on: HL-60(TB) leukemia; assay: NCI-60 one-dose screen, 48 h (100 = growth as untreated, 0 = no growth, -100 = all killed); conditions: 10 µM unless noted
Compounds without any hit were thinned out: in the full panel of roughly 83,000, 20% have a hit. The source made the active and inactive calls. The calls were made as follows: active = growth percent below 10; inactive = the rest.
Value Type: growth

Molecule: Nc1nc(-c2ccccc2)cc(-c2cc3ccccc3nc2Cl)n1
Value Reported: 51.6% (inactive)

Molecule: O=C(c1ccccc1)c1ccc2nc(-c3ccccc3Br)[nH]c2c1
Value Reported: -52.4% (active)

Molecule: COC(=O)c1ccc(-c2c(-c3ccccc3)c(F)c3oc(C(=O)OC)c(N)c3c2-c2ccccc2)cc1
Value Reported: 105% (inactive)

Molecule: C/C(=N\Nc1ccc(S(N)(=O)=O)cc1)c1cnn(-c2cc(=O)[nH]c3ccc(Br)cc23)c1C
Value Reported: 84.7% (inactive)

Molecule: Nc1nnc(-c2c[nH]c3ncccc23)c(-c2c[nH]c3ccc(Br)cc23)n1
Value Reported: 42% (inactive)

stdin: Suppose we examine the molecule COC[C@@H](CC(C)C)N=C1NC(=O)/C(=C/c2ccc3ncsc3c2)N1 ; what growth value has been reported?
stdout: 1.21% (active)

stdin: Try the molecule COc1cccc2nc(Nc3cccc(NC(=O)c4ccc(CN5CCCN(C)CC5)c(C(F)(F)F)c4)c3)ccc12
stdout: -54.3% (active)

stdin: Try the molecule O=C(CNc1nc(-c2ccccc2)cs1)Nc1cccc(Cl)c1
stdout: -2.63% (active)

stdin: Try the molecule Cc1ccccc1[C@H]1C(C(=O)c2ccc(Cl)cc2)C2(N[C@@H]1c1ccccc1)C(=O)Nc1ccc(Cl)cc12 (some centres undefined)
stdout: -32.2% (active)

* * *

system: MDA-MB-468 breast; test: NCI-60 one-dose screen, 48 h; settings: 10 µM unless noted
This is part of a sample that, as a whole, favours compounds with a hit. Of some 83,000 tested, about 20% had one in any assay. Active and inactive are the calls of the source. The calls were made as follows: active = growth percent below 10; inactive = the rest.
Valid outcomes are listed here; reply with one: yes (1) (active), no (0) (inactive)

Compound: CCOP(=O)(OCC)C(O)c1ccccc1Cl (stereo not given)
Classification: no (0)
--
Compound: COc1cc(/C=C\[N+](=O)[O-])ccc1OCc1ccccc1
Classification: yes (1)
--
Compound: CC(/C=N/N=C(N)N)=N\N=C(N)N
Classification: no (0)
--
Compound: O=C(CBr)OCCOC(=O)CBr
Classification: no (0)
--
Compound: C[C@]12CC[C@H]3[C@@H](CC[C@]4(O)C[C@@H](O[C@@H]5O[C@H](CO)[C@@H](O[C@@H]6OC[C@@H](O)[C@H](O)[C@H]6O)[C@H](O)[C@H]5O)CC[C@]34C=O)[C@@]1(O)CC[C@@H]2C1=CC(=O)OC1
Classification: no (0)

In the following, a different compound is considered.
stdin: Tell me the recorded outcome of this test for CC(C)[C@]12O[C@H]1[C@@H]1O[C@]13[C@]1(O[C@H]1C[C@H]1C4=C(CC[C@@]13C)C(=O)OC4)[C@@H]2OC(=O)OC(C)(C)C .
stdout: yes (1)

* * *

test system: OVCAR-8 ovarian; assay: NCI-60 one-dose screen, 48 h; details: 10 µM
This is part of a sample that, as a whole, favours compounds with a hit. Of some 83,000 tested, about 20% had one in any assay. Activity calls are given as the source filed them. The calls were made as follows: active = growth percent below 10; inactive = the rest.
Valid outcomes are listed here; reply with one: active, inactive

Answered examples (6):
Molecule: CC[C@]12C=CCN3CC[C@@]4(c5ccc(OC)cc5N(C)[C@H]4[C@@](O)(C(=O)OC)[C@@H]1OC(=O)CCC[P+](C1CCCCC1)(C1CCCCC1)C1CCCCC1)[C@@H]32
Classification: active
--
Molecule: N#C[Se]CC(=O)Nc1cccc(C(F)(F)F)c1
Classification: active
--
Molecule: CCOC(=O)C1=C(Nc2ccccc2)C(=O)OC12C(=O)Nc1ccccc12 (centres undefined)
Classification: inactive
--
Molecule: O=C(/C=C/c1ccc(F)cc1)c1nc2ccccc2n1Cc1ccc(F)cc1
Classification: active
--
Molecule: CC(=O)Oc1ccccc1C(=O)[Se]C(=NC(C)C)NC(C)C
Classification: active
--
Molecule: CN(C)CCc1cn(C2CCC2)c2cccc(O)c12
Classification: inactive

stdin: Tell me the recorded outcome of this test for COc1ccc2cc([C@H](C)C(=O)[Se]CCC#N)ccc2c1 .
stdout: active

stdin: Try the molecule COCCOCCOCCOc1ccc(-n2cc(-c3ccc(O[C@H]4O[C@@H]5OC6(C)CC[C@H]7[C@H](C)CC[C@@H]([C@H]4C)[C@@]57OO6)cc3)nn2)cc1
stdout: inactive

stdin: Try the molecule C=CC[Se]C(=O)c1cncc(C(=O)[Se]CC=C)c1
stdout: active

Reference source for all entries: PubChem BioAssay (NCI)
